Taken from patent US20190119282A1.

Target: PAR2 (HT-29 cells, trypsin activation) (Homo sapiens)
Construct: host or cells: HT-29 cells
Sequence (P55085 26-397): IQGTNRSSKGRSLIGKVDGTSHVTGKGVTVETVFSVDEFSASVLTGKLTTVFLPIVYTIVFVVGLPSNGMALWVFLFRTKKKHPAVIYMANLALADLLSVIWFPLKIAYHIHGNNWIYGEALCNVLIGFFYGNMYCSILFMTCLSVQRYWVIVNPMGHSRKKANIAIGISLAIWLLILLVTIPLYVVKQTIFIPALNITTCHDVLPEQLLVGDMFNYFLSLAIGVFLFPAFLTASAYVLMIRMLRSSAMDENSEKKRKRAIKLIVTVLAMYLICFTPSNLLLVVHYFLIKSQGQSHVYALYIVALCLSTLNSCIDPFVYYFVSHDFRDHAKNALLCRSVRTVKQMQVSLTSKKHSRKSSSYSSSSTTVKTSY
Experiment: Ca FLIPR TETRA assay, ANTAGONIST mode, stimulation with 3.1 U/mL trypsin
Format: cell-based
Settings: HT-29 cells, antagonist mode, stimulation with 3.1 U/mL trypsin
pIC50: −log10 of the molar value.
// pIC50 lookup, one value per entry

[
  {
    "compound": "CC(C)(C)c1cc(-c2ccc(C(F)(F)F)cc2)nn2cc(C(=O)N3CCNC(=O)C3(C)C)nc12 [Compound I-283]",
    "pIC50": 8.70
  },
  {
    "compound": "CC(C)(C)c1cc(-c2ccc(F)cc2)nn2cc(C(=O)N3CCN(C(=O)[C@H]4C[C@@](C)(O)C4)CC3(C)C)nc12 [Compound I-319]",
    "pIC50": 9.22
  },
  {
    "compound": "CC(C)c1cc(-c2ccccc2)nn2cc(C(=O)N3CCN(C(=O)C(C)(C)O)CC3(C)C)nc12 [Compound I-253]",
    "pIC50": 6.73
  },
  {
    "compound": "CC(CO)N1CCN(C(=O)c2cn3nc(-c4ccc(F)cc4)cc(C(C)(C)C)c3n2)C(C)(C)C1=O (stereo not shown) [Compound I-233]",
    "pIC50": 8.17
  }
]

###

// Vd lookup, one value per entry
experiment: In vivo rat pharmacokinetics (intravenous and oral); conditions: plasma, intravenous, read-out: Vss
measurement_name: Vd (L/kg)

[
  {
    "smiles_string": "CC(C)(O)C(=O)N1CCN(C(=O)c2cn3nc(-c4ccc(F)cc4)cc(C4(C)CC4)c3n2)C(C)(C)C1",
    "readout_units": "L/kg",
    "number": 2.2
  },
  {
    "smiles_string": "CC(C)(C)c1cc(-c2ccc(F)cc2)nn2cc(C(=O)N3CCN(C(=O)c4ccn[nH]4)CC3(C)C)nc12",
    "readout_units": "L/kg",
    "number": 3.3
  },
  {
    "smiles_string": "CC(C)(C)c1cc(C2CCC(F)(F)CC2)nn2cc(C(=O)N3CCN(C(=O)[C@H]4C[C@@](C)(O)C4)CC3(C)C)nc12",
    "readout_units": "L/kg",
    "number": 1.96
  },
  {
    "smiles_string": "CC(C)(C)c1cc(-c2ccc(F)cc2)nn2cc(C(=O)N3CCN(C(=O)[C@H]4CC[C@@](C)(C(=O)O)CC4)CC3(C)C)nc12",
    "readout_units": "L/kg",
    "number": 1.19
  },
  {
    "smiles_string": "CC(C)(C)c1cc(-c2ccc(F)cc2)nn2cc(C(=O)N3CCN(C(=O)c4c[nH]cn4)CC3(C)C)nc12",
    "readout_units": "L/kg",
    "number": 3.3
  },
  {
    "smiles_string": "CC(C)c1cc(-c2ccc(C(F)(F)F)c(F)c2)nn2cc(C(=O)N3CCN(C(=O)C(C)(C)O)CC3(C)C)nc12",
    "readout_units": "L/kg",
    "number": 1.49
  }
]

###

target: PAR2 (HT-29 cells, trypsin activation) (Homo sapiens, UniProt P55085); construct: host or cells: HT-29 cells; test: Ca FLIPR TETRA assay, ANTAGONIST mode, stimulation with 3.1 U/mL trypsin; assay type: cell-based; settings: HT-29 cells, antagonist mode, stimulation with 3.1 U/mL trypsin
measurement_name: IC50 (nM)

[
  {
    "smiles_string": "Cc1cc(C(=O)N2CCN(C(=O)c3cn4nc(-c5ccc(F)c(C)c5)cc(C(C)(C)C)c4n3)C(C)(C)C2)[nH]n1",
    "measurement_name": "IC50",
    "result_modifier": "=",
    "number": 0.7
  },
  {
    "smiles_string": "Cc1cc(-c2cc(C(C)C)c3nc(C(=O)N4CCNC(=O)C4(C)C)cn3n2)ccc1F",
    "measurement_name": "IC50",
    "result_modifier": "=",
    "number": 10.2
  },
  {
    "smiles_string": "C[C@@H]1C(=O)NCCN1C(=O)c1cn2nc(-c3ccc(F)cc3)cc(C(C)(C)C)c2n1",
    "measurement_name": "IC50",
    "result_modifier": ">",
    "number": 1000
  },
  {
    "smiles_string": "CC(C)c1cc(-c2ccc(F)cc2)nn2cc(C(=O)N3CCN(C(=O)c4ccccn4)CC3(C)C)nc12",
    "measurement_name": "IC50",
    "result_modifier": "=",
    "number": 14.2
  },
  {
    "smiles_string": "CC(C)(O)C(=O)N1CCN(C(=O)c2cn3nc(-c4ccc(F)cc4)cc(C(C)(C)C)c3n2)C(C)(C)C1",
    "measurement_name": "IC50",
    "result_modifier": "=",
    "number": 5.6
  },
  {
    "smiles_string": "Cc1c[nH]c(C(=O)N2CCN(C(=O)c3cn4nc(-c5ccc(F)cc5)cc(C(C)(C)C)c4n3)C(C)(C)C2)n1",
    "measurement_name": "IC50",
    "result_modifier": "=",
    "number": 1.6
  },
  {
    "smiles_string": "Cc1cc(-c2cc(C(C)C)c3nc(C(=O)N4CCN(C(=O)c5ncccn5)CC4(C)C)cn3n2)ccc1F",
    "measurement_name": "IC50",
    "result_modifier": "=",
    "number": 29
  },
  {
    "smiles_string": "Cc1nc(C(=O)N2CCN(C(=O)c3cn4nc(-c5ccc(F)c(Br)c5)cc(C(C)(C)C)c4n3)C(C)(C)C2)n[nH]1",
    "measurement_name": "IC50",
    "result_modifier": "=",
    "number": 1.5
  },
  {
    "smiles_string": "CC(C)c1cc(-c2ccc(F)c(F)c2)nn2cc(C(=O)N3CCN(C(=O)c4ccncn4)CC3(C)C)nc12",
    "measurement_name": "IC50",
    "result_modifier": "=",
    "number": 16.5
  },
  {
    "smiles_string": "CC(C)(C)c1cc(-c2ccc(Cl)c(F)c2)nn2cc(C(=O)N3CCN(C(=O)c4ccn[nH]4)CC3(C)C)nc12",
    "measurement_name": "IC50",
    "result_modifier": "=",
    "number": 0.7
  },
  {
    "smiles_string": "Cc1cc(C(=O)N2CCN(C(=O)c3cn4nc(-c5ccc(F)cc5)cc(C(C)C)c4n3)C(C)(C)C2)[nH]n1",
    "measurement_name": "IC50",
    "result_modifier": "=",
    "number": 2
  },
  {
    "smiles_string": "Cc1nc(C(=O)N2CCN(C(=O)c3cn4nc(-c5ccc(F)c(C)c5)cc(C(C)(C)C)c4n3)C(C)(C)C2)c[nH]1",
    "measurement_name": "IC50",
    "result_modifier": "=",
    "number": 2.9
  },
  {
    "smiles_string": "CN1CCN(C(=O)c2cn3nc(-c4ccc(F)cc4)cc(C(C)(C)C)c3n2)C(C)(C)C1=O",
    "measurement_name": "IC50",
    "result_modifier": "=",
    "number": 4
  },
  {
    "smiles_string": "Cc1cc(-c2cc(C(C)C)c3nc(C(=O)N4CCN(CO)C(=O)C4(C)C)cn3n2)ccc1F",
    "measurement_name": "IC50",
    "result_modifier": "=",
    "number": 31.7
  }
]
